- test-target: T1, huCLL1-Q244-Avi-Tev-His (human, UniProt Q5QGZ9 65-265)
- T1 construct: extracellular domain; also called CLL-1 K244Q
- T1 sequence (looked up): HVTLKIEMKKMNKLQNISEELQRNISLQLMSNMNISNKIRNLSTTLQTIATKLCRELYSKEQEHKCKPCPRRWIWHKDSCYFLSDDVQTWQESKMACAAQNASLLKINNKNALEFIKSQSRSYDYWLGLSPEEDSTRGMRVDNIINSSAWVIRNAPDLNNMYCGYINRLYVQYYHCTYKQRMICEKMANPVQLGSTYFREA
- run-description: BLI
measure: binding result

As a guide, the following entries are already answered.
{"binder": "Polypeptide No. 147 (scFv, V domains shown, scFv) VH: QVQLVQSGAEVKKPGASVKVSCKASGYTFTSYHIHWVRQAPGQGLEWVGGIIPSGGSTSYAQKFQGRVTMTRDTSTSTVYMELSSLRSEDTAVYYCARGTNDDHYDYWGQGTLVTVSS VL: DIQMTQSPSSLSASVGDRVTITCRASQGISNYLAWYQQKPGKAPKLLIYDASNLETGVPSRFSGSGSGTDFTLTISSLQPEDFATYYCQQSYSTPLTFGGGTKVEIKR", "measure": "binding result", "result": "binds"}
{"binder": "Polypeptide No. 164 (scFv, V domains shown, scFv) VH: QVQLVQSGAEVKKPGASVKVSCKASGYTFTAHYIHWVRQAPGQGLEWMGIINPNGGRTTYAQKFQGRVTMTRDTSTSTVYMELSSLRSEDTAVYYCARDSDFWSGYYSDYYYGMDVWGQGTTVTVSS VL: DIQMTQSPSSLSASVGDRVTITCQASQDISNFLNWYQQKPGKAPKLLIYATSTLQSGVPSRFSGSGSGTDFTLTISSLQPEDFATYYCQQSYTTEWTFGQGTKVEIKR", "measure": "binding result", "result": "binds"}
{"binder": "Polypeptide No. 145 (scFv, V domains shown, scFv) VH: QVQLVQSGAEVKKPGASVKVSCKASGGTFSTSYMHWVRQAPGQGLEWMGWIHPDDGNTDYAPKFQGRVTMTRDTSTSTVYMELSSLRSEDTAVYYCARDLGDYDTFDIWGQGTMVTVSS VL: DIQMTQSPSSLSASVGDRVTITCRVSQGISSYLNWYQQKPGKAPKLLIYDASNLQAGVPSRFSGSGSGTDFTLTISSLQPEDFATYYCQQSYSTPPTFGQGTKVEIKR", "measure": "binding result", "result": "binds"}
{"binder": "Polypeptide No. 196 (scFv, V domains shown, scFv) VH: QVQLVQSGAEVKKPGASVKVSCKASGYTLTNYYMHWVRQAPGQGLEWMGWISPTDGKTKYAQKFQGRVTMTRDTSTSTVYMELSSLRSEDTAVYYCTTDLLGDWFDPWGQGTLVTVSS VL: DIQMTQSPSSLSASVGDRVTITCRASRSIRSYLNWYQQKPGKAPKLLIYDASNLETGVPSRFSGSGSGTDFTLTISSLQPEDFATYYCQQSYNTPWTFGQGTKVEIKR", "measure": "binding result", "result": "binds"}
{"binder": "Polypeptide No. 175 (scFv, V domains shown, scFv) VH: QVQLVQSGAEVKKPGASVKVSCKASGYTFTSYDIHWVRQAPGQGLEWMGWINPNSGNTGYAQKFQGRVTMTRDTSTSTVYMELSSLRSEDTAVYYCAGGPDVDAAMVLDYWGQGTLVTVSS VL: DIQMTQSPSSLSASVGDRVTITCQASQDISNYLNWYQQKPGKAPKLLIYDASNLETGVPSRFSGSGSGTDFTLTISSLQPEDFATYYCQQADGFPPTFGGGTKVEIKR", "measure": "binding result", "result": "binds"}

Record binding result per entry; entries follow.
1. Polypeptide No. 187 (scFv, V domains shown, scFv) VH: EVQLLESGGGLVQPGGSLRLSCAASGFTFSSYDMHWVRQAPGKGLEWVSSISSSSSYIYYADSVKGRFTISRDNSKNTLYLQMNSLRAEDTAVYYCARDIDDVAGDYWGQGTLVTVSS VL: DIQMTQSPSSLSASVGDRVTITCQASQDISNYLNWYQQKPGKAPKLLIYGASSLQSGVPSRFSGSGSGTDFTLTISSLQPEDFATYYCQQSYSTPFTFGQGTKLEIKR
2. Polypeptide No. 177 (scFv, V domains shown, scFv) VH: QVQLVQSGAEVKKPGASVKVSCKASGYTFTSYYMHWVRQAPGQGLEWMGWMNPNSGNTGYAQKFQGRVTMTRDTSTSTVYMELSSLRSEDTAVYYCARSTYSDSFDYWGQGTLVTVSS VL: DIQMTQSPSSLSASVGDRVTITCRASQSISNWLAWYQQKPGKAPKLLIYDASNLETGVPSRFSGSGSGTDFTLTISSLQPEDFATYYCQQSYSTPLTFGQGTKLEIKR

Result:
["binds", "binds"]
